Where do the numbers come from? From patent EP4741392A1.

The listing below reports IC50 for compounds tested on ITK (Homo sapiens).
Sequence (Q08881 whole entry): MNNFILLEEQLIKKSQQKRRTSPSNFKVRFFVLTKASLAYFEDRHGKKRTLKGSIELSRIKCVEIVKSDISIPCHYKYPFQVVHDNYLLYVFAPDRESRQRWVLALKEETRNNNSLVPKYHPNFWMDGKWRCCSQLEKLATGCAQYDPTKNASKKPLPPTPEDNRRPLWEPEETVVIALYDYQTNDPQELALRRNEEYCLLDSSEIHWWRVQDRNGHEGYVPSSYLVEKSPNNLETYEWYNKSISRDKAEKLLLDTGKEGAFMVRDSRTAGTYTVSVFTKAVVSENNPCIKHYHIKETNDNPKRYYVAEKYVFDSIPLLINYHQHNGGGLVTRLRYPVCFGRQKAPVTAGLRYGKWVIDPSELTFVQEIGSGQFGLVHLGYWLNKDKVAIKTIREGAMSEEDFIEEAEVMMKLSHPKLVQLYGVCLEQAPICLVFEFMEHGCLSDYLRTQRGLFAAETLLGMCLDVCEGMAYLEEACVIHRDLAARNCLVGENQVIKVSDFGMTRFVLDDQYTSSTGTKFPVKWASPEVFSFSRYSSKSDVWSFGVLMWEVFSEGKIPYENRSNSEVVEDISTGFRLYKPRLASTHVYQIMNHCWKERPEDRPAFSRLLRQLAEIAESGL

Use these answered entries as a reference point.
{"chemicalSmiles": "COc1ccc(F)cc1C(=O)NCc1ccc(-c2ncc(-c3ccc(C(C)(C)O)cn3)c3[nH]nc(N)c23)cc1", "testTarget": "ITK (Homo sapiens)", "IC50": "50 to 500 nM"}
{"chemicalSmiles": "CCOC(=O)c1cnc2cc(-c3cnc(-c4ccc(CNC(=O)c5cc(F)ccc5OC)cc4)c4c(N)n[nH]c34)nn2c1", "testTarget": "ITK (Homo sapiens)", "IC50": "> 500 nM"}

Now, please, on to the next compound.
Query: What value of IC50 on ITK (Homo sapiens) does `COc1ccc(F)cc1C(=O)NCc1ccc(-c2ncc(-c3ccc(C(=O)N4C[C@@H](C)O[C@H](C)C4)cn3)c3[nH]nc(N)c23)cc1` have?
Result: 50 to 500 nM

----------
- Test system: OCI-LY10 cells
- testProtocol: Viability assay of OCI-LY10 cells (CTG)
- Format: cell-based
- cond: Homo sapiens, OCI-Ly10, 120 h, cell viability, read-out: OCl-Ly10
readoutType: IC50

{"molecule": "COc1ccc(F)cc1C(=O)NCc1ccc(-c2ncc(-c3cc4ncccn4n3)c3[nH]nc(N)c23)cc1 [Example 44]", "IC50": "≤ 5 nM"}
{"molecule": "COc1ccc(F)cc1C(=O)NCc1ccc(-c2ncc(-c3cnccn3)c3[nH]nc(N)c23)cc1 [Example 18]", "IC50": "10 to 50 nM"}
{"molecule": "COc1ccc(F)cc1C(=O)NCc1ccc(-c2ncc(-c3ccc(OCCN(C)C)cn3)c3[nH]nc(N)c23)cc1 [Example 60]", "IC50": "≤ 5 nM"}
{"molecule": "COc1ccc(F)cc1C(=O)NCc1ccc(-c2ncc(-c3ccc(S(C)(=O)=O)cn3)c3[nH]nc(N)c23)cc1 [Example 35]", "IC50": "≤ 5 nM"}
{"molecule": "COc1ccc(F)cc1C(=O)NCc1ccc(-c2ncc(-c3ccc(F)cn3)c3[nH]nc(N)c23)cc1 [Example 21]", "IC50": "5 to 10 nM"}

Query: So what does the record say about IC50 for COc1ccc(F)cc1C(=O)NCc1ccc(-c2ncc(-c3ccc(CN4CCN(C)CC4)cn3)c3[nH]nc(N)c23)cc1 [Example 68] ?
Result: ≤ 5 nM

Query: May I ask what IC50 has been recorded for COc1ccc(F)cc1C(=O)NCc1ccc(-c2nc(C3CCSCC3)cc3[nH]nc(N)c23)cc1 [Example 91] ?
Result: ≤ 5 nM

Query: May I ask what IC50 has been recorded for COc1ccc(F)cc1C(=O)NCc1ccc(-c2ncc(-c3ccn4nccc4n3)c3[nH]nc(N)c23)cc1 [Example 46] ?
Result: 5 to 10 nM

Query: Quick one: IC50 for COc1ccc(F)cc1C(=O)NCc1ccc(-c2nc([C@H]3CC[C@H](CO)CC3)cc3[nH]nc(N)c23)cc1 [Example 117] ?
Result: ≤ 5 nM

Query: Dear colleague, I am looking for the recorded IC50 of the following molecule: COc1ccc(F)cc1C(=O)NCc1ccc(-c2ncc(-c3cc4n(n3)CCN(C)C4)c3[nH]nc(N)c23)cc1 [Example 71]
Result: ≤ 5 nM

Query: Given the molecule COc1ccc(F)cc1C(=O)NCc1ccc(-c2ncc(-c3ccn(C)n3)c3[nH]nc(N)c23)cc1 [Example 23] , what is its reported IC50?
Result: ≤ 5 nM

Query: // query IC50 value for entry COc1ccc(F)cc1C(=O)NCc1ccc(-c2ncc(-c3ccc(CN4CCOCC4)cn3)c3[nH]nc(N)c23)cc1 [Example 67]
Result: ≤ 5 nM

Query: Requested field: IC50. Item: COc1ccc(F)cc1C(=O)NCc1ccc(-c2nc(C(C)C(F)(F)F)c(-c3ncccn3)c3[nH]nc(N)c23)cc1 (single isomer, unassigned) [Example 7-1]
Result: ≤ 5 nM

Query: Which IC50 value belongs to COc1ccc(F)cc1C(=O)NCc1ccc(-c2ncc(-c3ccc(CN4CCCCC4)cn3)c3[nH]nc(N)c23)cc1 [Example 66] ?
Result: ≤ 5 nM

Query: Endpoint output: IC50 of COc1ccc(F)cc1C(=O)NCc1ccc(-c2ncc(-c3ccc(C(=O)N4CCOCC4)cn3)c3[nH]nc(N)c23)cc1 [Example 52] . Value?
Result: ≤ 5 nM

Query: What value of IC50 has been recorded for this entry: COc1ccc(F)cc1C(=O)NCc1ccc(-c2ncc(-c3ccc(C4COC4)cn3)c3[nH]nc(N)c23)cc1 [Example 43]
Result: ≤ 5 nM

Query: Report IC50 for COc1ccc(F)cc1C(=O)NCc1ccc(-c2ncc(-c3cc4ccccn4n3)c3[nH]nc(N)c23)cc1 [Example 69] please.
Result: ≤ 5 nM

Query: Find the recorded IC50 belonging to COc1ccc(F)cc1C(=O)NCc1ccc(-c2ncc(-c3ccc(N4CCN(C)C[C@@H]4C)cn3)c3[nH]nc(N)c23)cc1 [Example 74] and report it.
Result: ≤ 5 nM
